Test system: 945468-187-T-J2-PDC spheroids viability;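 also: spheroids exposed to compounds for seven days before reading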
Test: Anticancer human tumor 945468-187-T-J2-PDC patient-derived rectal carcinoma cell line growth inhibition [PI3K]
Conditions: second compound 0.0316 µM; first compound 1 µM; stronger effect = lower value; spheroids with HUVEC and MSC
Measured metric: viability, T/C

[[record]]
compound = "CC1(C)CCC(CN2CCN(c3ccc(C(=O)NS(=O)(=O)c4ccc(NCC5CCOCC5)c([N+](=O)[O-])c4)c(Oc4cnc5[nH]ccc5c4)c3)CC2)=C(c2ccc(Cl)cc2)C1 + Cc1nc(NC(=O)N2CCCC2C(N)=O)sc1-c1ccnc(C(C)(C)C(F)(F)F)c1"
assayed_system = "945468-187-T-J2-PDC spheroids viability"
observed_value = "103%"

[[record]]
compound = "Cn1ncc(Cl)c1-c1cc(C(=O)NC(CN)Cc2cccc(F)c2)sc1Cl (stereo not given) + COc1c(OCCCN2CCOCC2)ccc2c3n(c(=NC(=O)c4cnc(N)nc4)nc12)CCN3"
assayed_system = "945468-187-T-J2-PDC spheroids viability"
observed_value = "68.9%"

[[record]]
compound = "CNC(=O)c1ccc(N2C(=S)N(c3ccc(C#N)c(C(F)(F)F)c3)C(=O)C2(C)C)cc1F + CC(Nc1ccc2c(c1)OCCn1cc(N3C(=O)OCC3C(F)F)nc1-2)C(N)=O"
assayed_system = "945468-187-T-J2-PDC spheroids viability"
observed_value = "103%"

[[record]]
compound = "CC(C)NCC(C(=O)N1CCN(c2ncnc3c2C(C)CC3O)CC1)c1ccc(Cl)cc1 (stereo not given) + Cc1nc(NC(=O)N2CCCC2C(N)=O)sc1-c1ccnc(C(C)(C)C(F)(F)F)c1"
assayed_system = "945468-187-T-J2-PDC spheroids viability"
observed_value = "110%"

[[record]]
compound = "CC(Cn1ccc(-c2ccc(C#N)c(Cl)c2)n1)NC(=O)c1cc(C(C)O)[nH]n1 (stereo not given) + Cc1nc(NC(=O)N2CCCC2C(N)=O)sc1-c1ccnc(C(C)(C)C(F)(F)F)c1"
assayed_system = "945468-187-T-J2-PDC spheroids viability"
observed_value = "96.3%"

